- Test system: PDC 521955-158-R6-J3 spheroids, viability
- Protocol Details: Anticancer human tumor 521955-158-R6-J3-PDC patient-derived pancreatic carcinoma cell line growth inhibition [TAK]
- Assay Context: second compound 9.49 µM; first compound 0.1 µM; stronger effect = lower value; spheroids with HUVEC and MSC
Form field: viability, T/C (one value per entry).
Numeric answer only, unit % assumed.

Below are worked cases with known answers.
INSERT INTO assay_data (molecule, meas_value) VALUES
  ('COc1c(OCCCN2CCOCC2)ccc2c3n(c(=NC(=O)c4cnc(N)nc4)nc12)CCN3 + CC(C)NCC(C(=O)N1CCN(c2ncnc3c2C(C)CC3O)CC1)c1ccc(Cl)cc1', 29.9),
  ('CC(C)CC(NC(=O)CNC(=O)c1cc(Cl)ccc1Cl)B1OC(=O)CC(CC(=O)O)(C(=O)O)O1 (stereo unspecified) + CC(C)NCC(C(=O)N1CCN(c2ncnc3c2C(C)CC3O)CC1)c1ccc(Cl)cc1', 3.75),
  ('Cc1nc(NC(=O)N2CCCC2C(N)=O)sc1-c1ccnc(C(C)(C)C(F)(F)F)c1 (stereo unspecified) + CC(C)NCC(C(=O)N1CCN(c2ncnc3c2C(C)CC3O)CC1)c1ccc(Cl)cc1', 58.4);

For CC(C)(C)c1nc(-c2cccc(NS(=O)(=O)c3c(F)cccc3F)c2F)c(-c2ccnc(N)n2)s1 + CC(C)NCC(C(=O)N1CCN(c2ncnc3c2C(C)CC3O)CC1)c1ccc(Cl)cc1 the molecule record lists viability, T/C as 97.4

For COC1CC2CCC(C)C(O)(O2)C(=O)C(=O)N2CCCCC2C(=O)OC(C(C)CC2CCC(OCCO)C(OC)C2)CC(=O)C(C)C=C(C)C(O)C(OC)C(=O)C(C)CC(C)C=CC=CC=C1C (stereo unspecified) + CC(C)NCC(C(=O)N1CCN(c2ncnc3c2C(C)CC3O)CC1)c1ccc(Cl)cc1 the molecule record lists viability, T/C as 58.4

For CC(C)n1nc(-c2ccc3oc(N)nc3c2)c2c(N)ncnc21 + CC(C)NCC(C(=O)N1CCN(c2ncnc3c2C(C)CC3O)CC1)c1ccc(Cl)cc1 the molecule record lists viability, T/C as 26.4

====

Form field: IC50 (one value per entry).
- System: PDC 521955-158-R6-J3 spheroids, viability
- Protocol Details: Anticancer human tumor 521955-158-R6-J3-PDC cell line growth inhibition [TAK];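 also: spheroids exposed to drugs for 7 days before readout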
- Assay Context: curve of first compound; second compound 30 µM; spheroids with HUVEC and MSC
Numeric answer only, unit nM assumed.

Below are worked cases with known answers.
INSERT INTO results (compound, meas_value) VALUES
  ('CC(=O)Nc1cccc(-n2c(=O)n(C3CC3)c(=O)c3c(Nc4ccc(I)cc4F)n(C)c(=O)c(C)c32)c1 + CC(C)NCC(C(=O)N1CCN(c2ncnc3c2C(C)CC3O)CC1)c1ccc(Cl)cc1', 1.64),
  ('CC(C)CC(NC(=O)C(Cc1ccccc1)NC(=O)c1cnccn1)B(O)O (stereo unspecified) + CC(C)NCC(C(=O)N1CCN(c2ncnc3c2C(C)CC3O)CC1)c1ccc(Cl)cc1', 5.65);

For CC(C)n1nc(-c2ccc3oc(N)nc3c2)c2c(N)ncnc21 + CC(C)NCC(C(=O)N1CCN(c2ncnc3c2C(C)CC3O)CC1)c1ccc(Cl)cc1 the compound record lists IC50 as 6.44

For Cn1cnc2c(F)c(Nc3ccc(Br)cc3Cl)c(C(=O)NOCCO)cc21 + CC(C)NCC(C(=O)N1CCN(c2ncnc3c2C(C)CC3O)CC1)c1ccc(Cl)cc1 the compound record lists IC50 as 186
